target_or_system: T1, human TIGIT expressed on cells (human, UniProt Q495A1 22-244)
T1 construct: whole, on cells; on Jurkat E6.1 cells transduced with human TIGIT, on Promega TIGIT Effector cells or on human primary T cells; the assay field says which; also called hTIGIT; Jurkat-hTIGIT
T1 sequence (looked up): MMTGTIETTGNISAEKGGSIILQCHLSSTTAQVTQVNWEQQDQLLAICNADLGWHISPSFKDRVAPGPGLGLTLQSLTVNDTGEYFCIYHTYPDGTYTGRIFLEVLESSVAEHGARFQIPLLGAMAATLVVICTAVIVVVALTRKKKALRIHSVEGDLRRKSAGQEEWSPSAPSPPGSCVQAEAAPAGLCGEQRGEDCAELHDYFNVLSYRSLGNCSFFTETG
method: flow cytometry, competition with CD155-His (15 ug/ml) on Jurkat-hTIGIT
reported_property: Fold change of IC50 over IC50 of best clone (31282_up) (fold)
The reply should contain only the number, in fold.

binder="313M32 (comparative anti-TIGIT antibody, human IgG1) (antibody, V domains shown, from WO2016/191643; made in HEK cells as human IgG1; the VL as printed ends at ...TFG (FR4 not complete); also called 313M2) VH: QVQLQESGPGLVKPSETLSLTCAVSGYSITSDYAWNWIRQPPGKGLEWIGYISYSGSTSYNPSLRSRVTISRDTSKNQFFLKLSSVTAADTAVYYCARRQVGLGFAYWGQGTLVTVSS VL: DIQMTQSPSSLSASVGDRVTITCKASQDVSTAVAWYQQKPGKAPKLLIYSASYRYTGVPSRFSGSGSGTDFTFTISSLQPEDIATYYCQQHYSTPWTFG" unit_of_measurement=fold test_result=16.7
binder="31C6 (MEB125.31C6.A1.205 VH4/VL1; comparative anti-TIGIT antibody, human IgG1) (antibody, V domains shown, from WO2016/028656; made in HEK cells as human IgG1; also called 3106 (as the text prints it)) VH: EVQLVQSGAEVKKPGASVKVSCKASGYTFSSYVMHWVRQAPGQGLEWIGYIDPYNDGAKYAQKFQGRVTLTSDKSTSTVYMELSSLRSEDTAVYYCARGGPYGWYFDVWGQGTTVTVSS VL: DIQMTQSPSSLSASVGDRVTITCRASEHIYSYLSWYQQKPGKAPKLLIYNAKTLAEGVPSRFSGSGSGTDFTLTISSLQPEDFATYYCQHHFGSPLTFGQGTRLEIK" unit_of_measurement=fold test_result=1.7

Continue with the binder presented below.
Query TIG1 (comparative anti-TIGIT antibody, human IgG1) (antibody, V domains shown, from WO2017/152088; made in HEK cells as human IgG1) VH: DVQLVESGGGLVQPGGSRKLSCAASGFTFSNFGMHWVRQAPEKGLEWVAFISSGSSSIYYADTVKGRFTISRDNPKNTLFLQMTSLRSEDTAMYYCARMRLDYYAMDYWGQGTSVTVSS VL: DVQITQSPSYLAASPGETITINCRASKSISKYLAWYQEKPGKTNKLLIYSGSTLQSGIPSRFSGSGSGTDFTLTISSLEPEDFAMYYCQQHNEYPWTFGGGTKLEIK yields Fold change of IC50 over IC50 of best clone (31282_up) of 1.6
